conditions: human, in vivo, sc, 0.3 mg, M1 Cmax, geometric mean
Starred links: 1 amine or outer side, 2 acyl side, 3 side chain; linkers in the order of their positions; H or OH if unused. Positions of bridges follow the written chain, without caps; N, C: chain ends. Non-standard residues stand in square brackets, D forms with d. Residues, ends and D or L forms follow the SMILES beside them. Groups on a side chain read outwards from the residue. *: point of attachment. X1 = CC(=O)NCCCC[C@H](NC(=O)CC[C@H](N)C(N)=O)C(=O)*; εLys = N[C@@H](CCCCN[*:1])C(=O)[*:2]; Dab = NCC[C@H](N)C(=O)O

# Compound, Cmax [ng/mL]
records = [
    ("CC[C@H](C)[C@@H]1NC(=O)[C@H](Cc2ccccc2)NC(=O)[C@@H](N)CSSC[C@@H](C(=O)N2CCC[C@H]2C(=O)N[C@@H](CCNC(=O)[C@@H](N)CCCCNC(=O)[C@H](CCCCNC(C)=O)NC(=O)CC[C@H](N)C(N)=O)C(=O)NCC(N)=O)NC(=O)[C@H](CC(N)=O)NC(=O)[C@H](CCC(N)=O)NC1=O [Compound M1] (H-CFIQNCP[Dab]([εLys-X1])G-NH2; disulfide 1-6)", 1.63),
]

====

conditions: human, in vivo, sc, 0.3 mg, M1 harmonic mean terminal half-life
Starred links: 1 amine or outer side, 2 acyl side, 3 side chain; linkers in the order of their positions; H or OH if unused. Positions of bridges follow the written chain, without caps; N, C: chain ends. Non-standard residues stand in square brackets, D forms with d. Residues, ends and D or L forms follow the SMILES beside them. Groups on a side chain read outwards from the residue. *: point of attachment. X1 = CC(=O)NCCCC[C@H](NC(=O)CC[C@H](N)C(N)=O)C(=O)*; εLys = N[C@@H](CCCCN[*:1])C(=O)[*:2]; Dab = NCC[C@H](N)C(=O)O

# Molecule, half-life
rows = [
    ("CC[C@H](C)[C@@H]1NC(=O)[C@H](Cc2ccccc2)NC(=O)[C@@H](N)CSSC[C@@H](C(=O)N2CCC[C@H]2C(=O)N[C@@H](CCNC(=O)[C@@H](N)CCCCNC(=O)[C@H](CCCCNC(C)=O)NC(=O)CC[C@H](N)C(N)=O)C(=O)NCC(N)=O)NC(=O)[C@H](CC(N)=O)NC(=O)[C@H](CCC(N)=O)NC1=O [Compound M1] (H-CFIQNCP[Dab]([εLys-X1])G-NH2; disulfide 1-6)", "1.5 to 2 h"),
]

====

settings: human, in vivo, sc, 0.3 mg, M1 AUC, min; max (n 1)
Starred links: 1 amine or outer side, 2 acyl side, 3 side chain; linkers in the order of their positions; H or OH if unused. Positions of bridges follow the written chain, without caps; N, C: chain ends. Non-standard residues stand in square brackets, D forms with d. Residues, ends and D or L forms follow the SMILES beside them. Groups on a side chain read outwards from the residue. *: point of attachment. X1 = CC(=O)NCCCC[C@H](NC(=O)CC[C@H](N)C(N)=O)C(=O)*; εLys = N[C@@H](CCCCN[*:1])C(=O)[*:2]; Dab = NCC[C@H](N)C(=O)O
Value type: AUC (ng·h/mL)

# Molecule, Value type, Numeric readout
rows = [
    ("CC[C@H](C)[C@@H]1NC(=O)[C@H](Cc2ccccc2)NC(=O)[C@@H](N)CSSC[C@@H](C(=O)N2CCC[C@H]2C(=O)N[C@@H](CCNC(=O)[C@@H](N)CCCCNC(=O)[C@H](CCCCNC(C)=O)NC(=O)CC[C@H](N)C(N)=O)C(=O)NCC(N)=O)NC(=O)[C@H](CC(N)=O)NC(=O)[C@H](CCC(N)=O)NC1=O [Compound M1] (H-CFIQNCP[Dab]([εLys-X1])G-NH2; disulfide 1-6)", "AUC", 11.3),
]

Taken from patent US20260137790A1.
